Measured on: UniProt:P29275
Sequence (P29275 1-332): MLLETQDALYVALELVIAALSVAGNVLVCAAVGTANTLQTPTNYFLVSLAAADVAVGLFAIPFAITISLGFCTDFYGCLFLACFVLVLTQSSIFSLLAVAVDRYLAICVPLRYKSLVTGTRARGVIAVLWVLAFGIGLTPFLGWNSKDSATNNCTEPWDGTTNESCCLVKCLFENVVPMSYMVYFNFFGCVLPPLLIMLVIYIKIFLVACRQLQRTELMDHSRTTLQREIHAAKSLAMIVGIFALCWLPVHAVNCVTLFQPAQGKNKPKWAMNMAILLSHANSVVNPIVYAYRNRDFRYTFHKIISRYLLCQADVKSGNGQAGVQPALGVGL
Experiment notes: cell-based
Cond: A2B cell line (PerkinElmer ES-013-C); 5'-N-ethylcarboxamidoadenosine at EC80; cAMP readout; read-out: A2B Antagonistic function IC50
From the text: A2a/A2B Receptor Antagonist Functional Assay Test: The A2A cell line was derived from PerkinElmer (Product ID: ES-011-C); the A2B cell line was derived from PerkinElmer (Product ID: ES-013-C). […]
Attribute measured: pIC50
Scale: pIC50 equals -log10([C]), with [C] in mol/L.

Task: # return recorded pIC50 for entry "Nc1cccc(Cc2cnn3c(-c4ccco4)nc(N)nc23)n1"
Output: 7.89

Task: # return recorded pIC50 for entry "Cc1ccc(-c2nc(N)nc3c(Cc4cccc(N)c4)c(Cl)nn23)o1"
Output: 8.34

Task: # return recorded pIC50 for entry "Cc1ccc(-c2nc(N)nc3c(Cc4ccc(N)c(C)c4)cnn23)o1"
Output: 7.82

Task: # return recorded pIC50 for entry "Cc1ccc(-c2nc(N)nc3c(Cc4c(F)cc(F)cc4F)cnn23)o1"
Output: 8.42

Task: # return recorded pIC50 for entry "COc1cccc(Cc2cnn3c(-c4ccc(C)o4)nc(N)nc23)n1"
Output: 7.73

----------
Measured on: A2A receptor (Homo sapiens)
Sequence (P29274 whole entry): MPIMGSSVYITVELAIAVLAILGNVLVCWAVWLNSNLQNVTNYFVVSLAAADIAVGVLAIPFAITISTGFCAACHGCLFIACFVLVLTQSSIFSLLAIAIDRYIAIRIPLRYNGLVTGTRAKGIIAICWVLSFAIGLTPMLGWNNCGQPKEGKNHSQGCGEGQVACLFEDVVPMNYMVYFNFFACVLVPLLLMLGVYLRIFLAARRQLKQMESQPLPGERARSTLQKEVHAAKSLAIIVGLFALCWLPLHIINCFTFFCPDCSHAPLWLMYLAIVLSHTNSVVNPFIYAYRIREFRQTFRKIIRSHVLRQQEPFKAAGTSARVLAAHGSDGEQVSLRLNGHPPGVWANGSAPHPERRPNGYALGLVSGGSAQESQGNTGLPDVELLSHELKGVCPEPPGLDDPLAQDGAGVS
Experiment notes: A2A receptor antagonist functional assay (cAMP, A2A cell line)
Format: cell-based
Cond: A2A cell line (PerkinElmer ES-011-C); 5'-N-ethylcarboxamidoadenosine at EC80; cAMP readout; read-out: A2A Antagonistic function IC50
Source text: A2a/A2B Receptor Antagonist Functional Assay Test: The A2A cell line was derived from PerkinElmer (Product ID: ES-011-C); the A2B cell line was derived from PerkinElmer (Product ID: ES-013-C). […]
Field: IC50. Provide a value for each of the compounds that follow.
Unit nM implied. Number only.

Task: # return recorded IC50 for entry "Cc1ccc(-c2nc(N)nc3c(Cc4cccc(CO)n4)cnn23)o1"
Output: 5.3

Task: # return recorded IC50 for entry "Cc1ccc(-c2nc(N)nc3c(Cc4cccc(CO[C@H]5CCOC5)n4)cnn23)o1"
Output: 9.1

Task: # return recorded IC50 for entry "COCc1cccc(Cc2cnn3c(-c4ccc(C)o4)nc(N)nc23)n1"
Output: 1.8

----------
Measured on: A2B receptor (Homo sapiens)
Experiment notes: cell-based
Cond: A2B cell line (PerkinElmer ES-013-C); 5'-N-ethylcarboxamidoadenosine at EC80; cAMP readout; read-out: A2B Antagonistic function IC50
Field: IC50. Provide a value for each of the compounds that follow.
Unit nM implied. Number only.

Task: # return recorded IC50 for entry "Nc1cccc(Cc2cnn3c(-c4ccco4)nc(N)nc23)c1"
Output: 60

Task: # return recorded IC50 for entry "Cc1ccc(N)c(Cc2cnn3c(-c4ccc(C)o4)nc(N)nc23)c1"
Output: 155

Task: # return recorded IC50 for entry "Cc1ccc(-c2nc(N)nc3c(Cc4ccc(N)cc4)cnn23)o1"
Output: 2.7

Task: # return recorded IC50 for entry "COCCNc1cccc(Cc2cnn3c(-c4ccc(C)o4)nc(N)nc23)n1"
Output: 36

Task: # return recorded IC50 for entry "Cc1ccc(-c2nc(N)nc3c(Cc4ccc(F)cc4C)cnn23)o1"
Output: 420

Task: # return recorded IC50 for entry "Cc1ccc(-c2nc(N)nc3c(Cc4cccc(CO[C@H]5CCOC5)[n+]4[O-])cnn23)o1"
Output: 1030

Task: # return recorded IC50 for entry "Cc1ccc(-c2nc(N)nc3c(Cc4cccc(COC5CC5)n4)cnn23)o1"
Output: 51

Task: # return recorded IC50 for entry "Cn1ccc(-c2nc(N)nc3c(Cc4cccc(N)c4)cnn23)n1"
Output: 83.5

Task: # return recorded IC50 for entry "Cc1ccc(-c2nc(N)nc3c(Cc4cccc(N)c4)cnn23)o1"
Output: 7.9

Task: # return recorded IC50 for entry "COCCNCc1cccc(Cc2cnn3c(-c4ccc(C)o4)nc(N)nc23)n1"
Output: 117

Task: # return recorded IC50 for entry "Cc1ccc(-c2nc(N)nc3c(Cc4cccc(N)c4)c(F)nn23)o1"
Output: 4

Task: # return recorded IC50 for entry "Cc1ccc(-c2nc(N)nc3c(Cc4ccccc4N)cnn23)o1"
Output: 9.7

Task: # return recorded IC50 for entry "Cc1ccc(-c2nc(N)nc3c(Cc4cc(N)c(F)cc4F)cnn23)o1"
Output: 7.7

Task: # return recorded IC50 for entry "Cc1ccc(-c2nc(N)nc3c(Cc4cccc(N)n4)cnn23)o1"
Output: 1.6

Task: # return recorded IC50 for entry "Cc1ccc(-c2nc(N)nc3c(Cc4cccc(N)c4)c(C)nn23)o1"
Output: 6.2

Task: # return recorded IC50 for entry "Cc1ccc(-c2nc(N)nc3c(Cc4ccc(F)cc4F)cnn23)o1"
Output: 16.4
